Cited source for all entries: patent US20210346357A1

# method_summary: Phase 1 SAD/MAD study of inhaled compound 1 in healthy subjects
# Assay type: in vivo, human
# test_conditions: human, plasma, inhaled or intranasal, 10 mg, healthy subjects, inhaled 10 mg QD, Day 7, mean; read-out: AUC0-24
readout_label: AUC(0-t)
Write your answer as a measured quantity: the number, then the unit.

Query block: Requested field: AUC(0-t). Item: `CCc1cc(O)ccc1-c1ccc2c(-c3nc4c([nH]3)CN(C(C)C)[C@H](C(=O)N3CC(N(C)C)C3)C4)n[nH]c2c1`
Result block: 204 ng·h/mL

###

# method_summary: Phase 1 SAD/MAD study of inhaled compound 1 in healthy subjects
# Assay type: in vivo, human
# test_conditions: human, plasma, inhaled or intranasal, 1 mg, healthy subjects, single inhaled dose 1 mg, mean
readout_label: Cmax (ng/mL)
Report as a plain number; the unit ng/mL is understood.

Query block: Reported Cmax, compound CCc1cc(O)ccc1-c1ccc2c(-c3nc4c([nH]3)CN(C(C)C)[C@H](C(=O)N3CC(N(C)C)C3)C4)n[nH]c2c1 [Compound 1] : ____
Result block: 5.72
